Some compounds, each annotated with its measured IC50.
System: SUM149
Assay: Cytotoxicity in vitro (MTT) in presence/absence of elastase
Type: cell-based
Conditions: SUM149, with (+) 10 nM neutrophil elastase, 72 h

Compound | IC50
CCCNC(=O)Nc1cccc(S(=O)(=O)Nc2cccc([C@@H](CC(=O)O)NC(=O)Nc3ccc(NC(=O)N(C)CCN(C)CCN(C)CC(=O)N[C@@H](CC(N)=O)C(=O)N4CCC[C@H]4C(=O)N[C@H](C(=O)N=[S@@](C)(=O)Cc4cc5cc(c4)OCCCCOc4cc(F)ccc4-c4nc(ncc4F)N5)C(C)C)cc3)c2)c1 | 1.1 to 10 nM
CCCNC(=O)Nc1cccc(S(=O)(=O)Nc2cccc([C@H](CC(=O)O)NC(=O)Nc3ccc(NC(=O)NCCOCCOCCOCCC(=O)NCCCC[C@H](NC(=O)CCOCCOCCOCCNC(=O)Nc4ccc(NC(=O)N[C@@H](CC(=O)O)c5cccc(NS(=O)(=O)c6cccc(NC(=O)NCCC)c6)c5)cc4)C(=O)NCCOCCOCCOCCC(=O)N[C@@H](CC(=O)O)C(=O)N4CCC[C@H]4C(=O)N[C@H](C(=O)N=[S@@](C)(=O)Cc4cc5cc(c4)OCCCCOc4cc(F)ccc4-c4nc(ncc4F)N5)C(C)C)cc3)c2)c1 | ≤ 1 nM
CCCNC(=O)Nc1cccc(S(=O)(=O)Nc2cccc([C@@H](CC(=O)O)NC(=O)Nc3ccc(NC(=O)NCCN(C)CCN(C)CCN(C)CC(=O)N[C@@H](CC(N)=O)C(=O)N4CCC[C@H]4C(=O)N[C@H](C(=O)N=[S@](C)(=O)Cc4cc5cc(c4)OCCCCCNc4cc(ccc4F)-c4nc(ncc4F)N5)C(C)C)cc3)c2)c1 (relative stereo) | 1.1 to 10 nM

###

Test system: 786-O
Test: Cytotoxicity assay (Version 2, automated, AC50) with/without neutrophil elastase
Type: cell-based, human
Settings: without (−) neutrophil elastase, Version 2, activity concentration at −50%

Cpd Smiles | Measured Target | AC50
CCCNC(=O)Nc1cccc(S(=O)(=O)Nc2cccc([C@@H](CC(=O)O)NC(=O)Nc3ccc(NC(=O)NCCOCCOCCOCCC(=O)NCCCC[C@H](NC(=O)CCOCCOCCOCCNC(=O)Nc4ccc(NC(=O)N[C@H](CC(=O)O)c5cccc(NS(=O)(=O)c6cccc(NC(=O)NCCC)c6)c5)cc4)C(=O)NCCOCCOCCOCCC(=O)N[C@@H](CC(=O)O)C(=O)N4CCC[C@H]4C(=O)N[C@H](C(=O)N=[S@@](C)(=O)Cc4cc5cc(c4)OCCCCOc4cc(F)ccc4-c4nc(ncc4F)N5)C(C)C)cc3)c2)c1 | 786-O | > 1000 nM

###

Tested on: HT29
Experiment: Cytotoxicity assay (Version 2, automated, AC50) with/without neutrophil elastase
Type: cell-based, human
Conditions: HT29, without (−) neutrophil elastase, Version 2, activity concentration at −50%
Reported Endpoint: AC50

Compound | Val
CCCNC(=O)Nc1cccc(S(=O)(=O)Nc2cccc([C@@H](CC(=O)O)NC(=O)Nc3ccc(NC(=O)N(C)CCN(C)CCN(C)CC(=O)N[C@@H](CC(N)=O)C(=O)N4CCC[C@H]4C(=O)N[C@H](C(=O)N=[S@@](C)(=O)Cc4cc5cc(c4)OCCCCOc4cc(F)ccc4-c4nc(ncc4F)N5)C(C)C)cc3)c2)c1 [Compound 5] | > 1000 nM
CCCNC(=O)Nc1cccc(S(=O)(=O)Nc2cccc([C@@H](CC(=O)O)NC(=O)Nc3ccc(NC(=O)NCCOCCOCCOCCC(=O)N[C@@H](CC(=O)O)C(=O)N4CCC[C@H]4C(=O)N[C@H](C(=O)N=S(C)(=O)Cc4cccc(Nc5ncnc(-c6ccc(F)cc6OC)n5)c4)C(C)C)cc3)c2)c1 (relative stereo) [Compound 1] | > 1000 nM
CCCNC(=O)Nc1cccc(S(=O)(=O)Nc2cccc([C@@H](CC(=O)O)NC(=O)Nc3ccc(NC(=O)NCCN(C)CCN(C)CCN(C)CC(=O)N[C@@H](CC(N)=O)C(=O)N4CCC[C@H]4C(=O)N[C@H](C(=O)N=[S@@](C)(=O)Cc4cc5cc(c4)OCCCCCNc4cc(ccc4F)-c4nc(ncc4F)N5)C(C)C)cc3)c2)c1 (relative stereo) [Compound 15] | 100 to 1000 nM
